- System: CCRF-CEM leukemia
- ASSAY: NCI-60 one-dose screen, 48 h
- CONDITIONS: 10 µM unless noted
About 83,000 compounds went through this panel and 20% of them were active in at least one assay; those are over-represented in the sample as a whole. The source made the active and inactive calls. The calls were made as follows: active = growth percent below 10; inactive = the rest.
Outcome codes: t = active, f = inactive

>>> qualitative_label("Cc1cc(Cl)ccc1NS(=O)(=O)c1ccc(-c2cnc(C3CC3)o2)cc1")
"f"
>>> qualitative_label("O=c1c2cc(F)ccc2sc2c(N3CCNCC3)nc3ccc(F)cc3c12")
"t"
>>> qualitative_label("Cn1cc(C(=O)c2nc(-c3cn(C)c4ccc(F)cc34)no2)c2cc(F)ccc21")
"f"
>>> qualitative_label("O=C(CCCCCCSc1nc(-c2ccccc2)cc(-c2ccccc2)n1)NO")
"t"
>>> qualitative_label("COc1ccc2nc(NCCCNCCO)c3sc4ccc(F)cc4c(=O)c3c2c1")
"t"
>>> qualitative_label("N#Cc1c(-c2ccccc2)nc(SCC(=O)Nc2nc(-c3ccc(Cl)cc3)cs2)[nH]c1=O")
"f"
>>> qualitative_label("O=C1CSC(c2c(Cl)cccc2Cl)N1c1nc(Cl)cc(=O)[nH]1 (stereo not given)")
"f"
>>> qualitative_label("COc1cccc(-c2nn(-c3ccccc3)cc2-c2ccnc(N3CCOCC3)c2)c1")
"f"
>>> qualitative_label("C=CCc1cc(C)ccc1NC(C(=O)NCC(=O)OC)c1ccccc1 (stereo not given)")
"f"
>>> qualitative_label("COc1ccc(-c2cc(-c3cc(OC)c(OC)c(OC)c3)nc(N3CCOCC3)c2C#N)cc1")
"f"
